Test system: MDA-MB-436
Test: Cell growth inhibition, MDA-MB-436 breast cancer cells (WST-8)
Type: cell-based
Conditions: Homo sapiens, MDA-MB-436, 96 h; 4 days; read-out: IC50 (nM) MDA-MB-436 Cell Line (WST assay)
Method: All the breast cancer cell lines were obtained from the ATCC. Cell viability was determined using the WST-8 (2-(2-methoxy-4-nitrophenyl)-3-(4-nitrophenyl)-5-(2,4-disulfophenyl)-2H-tetrazolium, monosodium salt) based Cell Counting-8 Kit (Dojindo Molecular Technologies, Inc., Rockville, Md.) according to the manufacture's instruction. […] The absorbance was measured at 450 nm using a SPECTRAmax PLUS plate reader (Molecular Devices, Sunnyvale, Calif.). […]
Label Met when IC50 is strictly below 100 nM; otherwise label Not met.

Before answering, review these 6 worked examples.
inputSmiles: CCc1nn(C)c(Nc2nc(C)nc3[nH]c4cc(-c5c(C)noc5C)c(OC)cc4c23)c1C
targetEntity: MDA-MB-436
groupLabel: Met
--
inputSmiles: COc1cc2c(cc1-c1c(C)noc1C)[nH]c1nc(C)nc(Sc3nnc(C)n3C(C)C)c12
targetEntity: MDA-MB-436
groupLabel: Not met
--
inputSmiles: COc1cc2c(cc1-c1c(C)noc1C)[nH]c1nc(C)nc(Nc3cnn4cccnc34)c12
targetEntity: MDA-MB-436
groupLabel: Not met
--
inputSmiles: COc1cc2c(cc1-c1c(C)noc1C)[nH]c1nc(C)nc(Nc3cccc(C)c3)c12
targetEntity: MDA-MB-436
groupLabel: Not met
--
inputSmiles: CCn1nc2c(c1Nc1nc(C)nc3[nH]c4cc(-c5c(C)noc5C)c(OC)cc4c13)CCC2
targetEntity: MDA-MB-436
groupLabel: Met
--
inputSmiles: COc1cc2c(cc1-c1c(C)noc1C)[nH]c1nc(C)nc(Nc3cncc(Cl)c3)c12
targetEntity: MDA-MB-436
groupLabel: Not met

Query string: Hello, I'm reviewing records and need to know if IC50 of `COc1cc2c(cc1-c1c(C)noc1C)[nH]c1nc(C)nc(Nc3cn(C)nc3C(C)C)c12` is below 100 nM. Could you check?
Result string: Met

Query string: Is IC50 of `COc1cc2c(cc1-c1c(C)noc1C)[nH]c1nc(C)nc(Nc3cc(C)cc(C)c3)c12` strictly below 100 nM?
Result string: Met

Query string: Identify whether the molecule `COc1cc2c(cc1-c1c(C)noc1C)[nH]c1nc(C)nc(Nc3onc(C)c3C)c12` records IC50 below 100 nM.
Result string: Not met

Query string: Field: below-cutoff. Rule: recorded IC50 strictly less than 100 nM. Subject: `COc1cc2c(cc1-c1c(C)noc1C)[nH]c1nc(C)nc(Nc3c(C)cnn3C3CCCC3)c12`
Result string: Met

Query string: Report whether reported IC50 is lower than 100 nM (strictly) for `COc1cc2c(cc1-c1c(C)noc1C)[nH]c1nc(C)nc(Nc3ccccc3)c12`
Result string: Met
